# Experimental system: Serine protease 1 (Homo sapiens, UniProt P07477)
# Sequence (P07477 whole entry): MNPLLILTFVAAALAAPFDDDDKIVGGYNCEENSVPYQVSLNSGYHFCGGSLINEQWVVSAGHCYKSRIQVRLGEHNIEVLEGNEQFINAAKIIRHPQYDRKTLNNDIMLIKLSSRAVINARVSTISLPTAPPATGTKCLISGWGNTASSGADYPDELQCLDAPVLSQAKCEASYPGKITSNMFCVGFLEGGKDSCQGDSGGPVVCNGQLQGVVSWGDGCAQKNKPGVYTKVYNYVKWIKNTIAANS
# Method notes: In vitro inhibition of human trypsin.
pIC50: −log10 of the molar value.

# Molecule, Relation operator, pIC50
measured = [
    ("N=C(N)N1CCC[C@H](NC(=O)CNC(=O)[C@@H](CCNC(=O)c2nccc3ccccc23)NC(=O)OCc2ccccc2)C1O (stereo partly specified)", "<", 5.60),
    ("N=C(N)N1CCC[C@H](NC(=O)CNC(=O)[C@@H](CCNC(=O)c2cncc(Br)c2)NC(=O)OCc2ccccc2)C1O (stereo partly specified)", "<", 7.51),
    ("N=C(N)N1CCC[C@H](NC(=O)CNC(=O)[C@@H](CCNC(=O)c2cncc(Br)c2)NS(=O)(=O)Cc2ccccc2)C1O (stereo partly specified)", "=", 6.80),
    ("N=C(N)N1CCC[C@H](NC(=O)CNC(=O)[C@@H](CCNC(=O)c2cnccn2)NC(=O)OCc2ccccc2)C1O (stereo partly specified)", "=", 7.52),
    ("N=C(N)N1CCC[C@H](NC(=O)CNC(=O)[C@@H](CCNC(=O)c2cccnc2)NS(=O)(=O)Cc2ccccc2)C1O (stereo partly specified)", "=", 6.25),
    ("N=C(N)NCCCC(NS(=O)(=O)Cc1ccccc1)C(=O)NCC(=O)N[C@H]1CCCN(C(=N)N)C1O (stereo partly specified)", "=", 7.12),
]

* * *

# Experimental system: Plasminogen (Homo sapiens, UniProt P00747)
# Sequence (P00747 97-580 limits assumed): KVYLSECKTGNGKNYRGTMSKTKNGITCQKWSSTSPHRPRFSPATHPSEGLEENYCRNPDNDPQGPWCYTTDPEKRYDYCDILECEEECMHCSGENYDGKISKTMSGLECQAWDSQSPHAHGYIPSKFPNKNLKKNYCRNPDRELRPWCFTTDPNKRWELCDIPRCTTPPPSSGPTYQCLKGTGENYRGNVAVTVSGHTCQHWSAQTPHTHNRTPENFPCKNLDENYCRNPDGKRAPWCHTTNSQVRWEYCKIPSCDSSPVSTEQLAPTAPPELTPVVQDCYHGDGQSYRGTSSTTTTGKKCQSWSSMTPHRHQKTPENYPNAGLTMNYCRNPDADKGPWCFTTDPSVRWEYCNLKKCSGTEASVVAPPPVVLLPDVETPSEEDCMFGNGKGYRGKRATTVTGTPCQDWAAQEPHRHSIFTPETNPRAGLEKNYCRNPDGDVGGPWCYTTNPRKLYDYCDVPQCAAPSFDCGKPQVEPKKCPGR
# Sequence (P00747 581-810 limits assumed): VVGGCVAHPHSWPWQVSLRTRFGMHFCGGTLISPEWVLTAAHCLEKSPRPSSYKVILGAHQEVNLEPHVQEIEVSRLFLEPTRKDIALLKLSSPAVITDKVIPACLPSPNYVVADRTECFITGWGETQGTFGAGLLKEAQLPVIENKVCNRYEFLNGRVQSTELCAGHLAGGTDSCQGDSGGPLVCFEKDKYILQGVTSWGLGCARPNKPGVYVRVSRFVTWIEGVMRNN
# Method notes: In vitro inhibition of human thrombolytic protease Plasmin.

# Compound, Relation operator, IC50 [nM]
rows = [
    ("N=C(N)N1CCC[C@H](NC(=O)CNC(=O)[C@@H](CCNC(=O)c2ccccn2)NS(=O)(=O)Cc2ccccc2)C1O (some centres undefined)", "=", 1140),
    ("N=C(N)N1CCC[C@H](NC(=O)CNC(=O)[C@@H](CCNC(=O)c2cnnc3ccccc23)NS(=O)(=O)Cc2ccccc2)C1O (some centres undefined)", "=", 700),
    ("N=C(N)N1CCC[C@H](NC(=O)CNC(=O)[C@@H](CCNC(=O)c2cnccn2)NS(=O)(=O)Cc2ccccc2)C1O (some centres undefined)", "=", 521),
    ("Cc1cnc(C(=O)NCC[C@@H](NC(=O)OCc2ccccc2)C(=O)NCC(=O)N[C@H]2CCCN(C(=N)N)C2O)cn1 (some centres undefined)", ">", 2500),
    ("N=C(N)N1CCC[C@H](NC(=O)CNC(=O)[C@@H](CCNC(=O)c2nccc3ccccc23)NC(=O)OCc2ccccc2)C1O (some centres undefined)", ">", 2500),
    ("N=C(N)N1CCC[C@H](NC(=O)CNC(=O)[C@@H](CCNC(=O)c2nccc3ccccc23)NS(=O)(=O)Cc2ccccc2)C1O (some centres undefined)", "=", 730),
    ("N=C(N)N1CCC[C@H](NC(=O)CNC(=O)[C@@H](CNC(=O)c2cnccn2)NS(=O)(=O)Cc2ccccc2)C1O (some centres undefined)", "=", 1480),
    ("N=C(N)N1CCC[C@H](NC(=O)CNC(=O)[C@@H](CCNC(=O)c2cnccn2)NC(=O)OCc2ccccc2)C1O (some centres undefined)", "=", 2030),
    ("N=C(N)N1CCC[C@H](NC(=O)CNC(=O)[C@@H](CCNC(=O)c2cncc(Br)c2)NC(=O)OCc2ccccc2)C1O (some centres undefined)", ">", 2500),
]

* * *

pIC50 values by entry
# Experimental system: Prothrombin (Homo sapiens)
# Method notes: In vitro inhibition of human Thrombin (FIIa).
pIC50: −log10 of the molar value.
Experimental readout: pIC50

# Compound, Data value
measured = [
    ("N=C(N)N1CCC[C@H](NC(=O)CNC(=O)[C@@H](CCNC(=O)c2cncc(Br)c2)NS(=O)(=O)Cc2ccccc2)C1O (some centres undefined)", "< 5.60"),
    ("N=C(N)N1CCC[C@H](NC(=O)CNC(=O)[C@@H](CCNC(=O)c2ccc(O)nc2)NS(=O)(=O)Cc2ccccc2)C1O (some centres undefined)", "< 5.60"),
    ("N=C(N)N1CCC[C@H](NC(=O)CNC(=O)[C@@H](CCNC(=O)c2cccnc2)NS(=O)(=O)Cc2ccccc2)C1O (some centres undefined)", "< 5.60"),
    ("N=C(N)NCCCC(NS(=O)(=O)Cc1ccccc1)C(=O)NCC(=O)N[C@H]1CCCN(C(=N)N)C1O (some centres undefined)", "< 5.60"),
    ("N=C(N)N1CCC[C@H](NC(=O)CNC(=O)[C@@H](CNC(=O)c2cnccn2)NS(=O)(=O)Cc2ccccc2)C1O (some centres undefined)", "< 5.60"),
    ("N=C(N)N1CCC[C@H](NC(=O)CNC(=O)[C@@H](CCNC(=O)c2nc3ccccc3nc2O)NS(=O)(=O)Cc2ccccc2)C1O (some centres undefined)", "< 5.60"),
    ("N=C(N)N1CCC[C@H](NC(=O)CNC(=O)[C@@H](CCNC(=O)c2cnc3ccccc3c2)NS(=O)(=O)Cc2ccccc2)C1O (some centres undefined)", 6.27),
    ("N=C(N)N1CCC[C@H](NC(=O)CNC(=O)[C@@H](CCCNC(=O)c2cnccn2)NS(=O)(=O)Cc2ccccc2)C1O (some centres undefined)", 5.60),
    ("N=C(N)N1CCC[C@H](NC(=O)CNC(=O)[C@@H](CCNC(=O)c2ccc3ccccc3n2)NS(=O)(=O)Cc2ccccc2)C1O (some centres undefined)", 5.90),
    ("N=C(N)N1CCC[C@H](NC(=O)CNC(=O)[C@@H](CCNC(=O)c2cnccn2)NC(=O)OCc2ccccc2)C1O (some centres undefined)", 5.60),
    ("N=C(N)N1CCC[C@H](NC(=O)CNC(=O)[C@@H](CCNC(=O)c2cnnc3ccccc23)NS(=O)(=O)Cc2ccccc2)C1O (some centres undefined)", 5.75),
    ("N=C(N)N1CCC[C@H](NC(=O)CNC(=O)[C@@H](CCNC(=O)c2cnccn2)NS(=O)(=O)Cc2ccccc2)C1O (some centres undefined)", "< 5.60"),
    ("N=C(N)N1CCC[C@H](NC(=O)CNC(=O)[C@@H](CCNC(=O)c2ccccn2)NS(=O)(=O)Cc2ccccc2)C1O (some centres undefined)", "< 5.60"),
    ("N=C(N)N1CCC[C@H](NC(=O)CNC(=O)[C@@H](CCNC(=O)c2nccc3ccccc23)NS(=O)(=O)Cc2ccccc2)C1O (some centres undefined)", "< 5.60"),
]

Data provenance is ChEMBL document CHEMBL1131910.
